Listed next: entries and their corresponding Max Inhibition (%).
Tgt: T1, human CCR8 (human, UniProt P51685 1-355)
T1 construct: whole, on cells; also called hCCR8
Assay summary: FACS, competition with AF647-human CCL1 on CHO-K1-human CCR8 cells
Write the answer as a number in %, unit excluded.

>>> quantitative_readout("149F2C10-CHO (antibody, V domains shown, The suffix -CHO is not explained) VH: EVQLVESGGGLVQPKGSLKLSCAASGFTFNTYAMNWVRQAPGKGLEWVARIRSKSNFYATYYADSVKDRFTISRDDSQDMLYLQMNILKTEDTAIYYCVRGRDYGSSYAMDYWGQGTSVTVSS VL: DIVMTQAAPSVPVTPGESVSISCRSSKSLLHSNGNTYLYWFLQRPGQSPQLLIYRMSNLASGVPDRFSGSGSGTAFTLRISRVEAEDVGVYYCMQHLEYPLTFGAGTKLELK")
80.1

Note: attention shifts to another entry.
Tell me the measured Max Inhibition (%) of 149F2C10_G29A (antibody, V domains shown, NG site removed variant of 149F2C10) VH: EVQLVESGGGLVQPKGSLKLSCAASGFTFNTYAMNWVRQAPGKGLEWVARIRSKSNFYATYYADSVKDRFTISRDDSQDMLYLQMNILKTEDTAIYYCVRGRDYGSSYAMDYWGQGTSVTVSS VL: DIVMTQAAPSVPVTPGESVSISCRSSKSLLHSNANTYLYWFLQRPGQSPQLLIYRMSNLASGVPDRFSGSGSGTAFTLRISRVEAEDVGVYYCMQHLEYPLTFGAGTKLELK , please.
77.5
